- Measured Target: T1, TGFβ3 (R&D Systems) (Homo sapiens (Human), UniProt P10600 301-412, Active TGFβ3 is a disulfide-linked homodimer of this chain; one copy is given.)
- T1 sequence: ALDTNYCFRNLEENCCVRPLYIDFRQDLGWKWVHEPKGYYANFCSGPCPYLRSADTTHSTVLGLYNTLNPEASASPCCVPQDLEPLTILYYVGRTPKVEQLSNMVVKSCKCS
- Measurement Notes: cell-based or functional assay
Measurement Label: CMVIC pSmad-3, IC50 (nM)
Answers are plain numbers, in nM.

// worked examples, CMVIC pSmad-3, IC50 included
{"columns": ["Binder", "Measurement Label", "Observed Result"],
 "data": [
  ["Can04H09 VH3/VL4 (antibody, V domains shown) VH: EVQLVQSAAEVKKPGASVKVSCKTSGYTFTSSWMNWVQQAPGAGLDWMGQIYPGDGDTNYNGKFKGRVTLTADTSTSTAYMELSSLRAEDTAVYYCARHYDGSTDYWGQGTLVTVSS VL: EIVMTQSPASLSLSQGEKVTITCRASENIYSNLAWYQQRPGQAPKLLIYAATNLADGVPSRFSGSGSGTDFSLTISSLEPEDVAVYYCQHFWGTPYTFGQGTK", "CMVIC pSmad-3, IC50", 52.8],
  ["Can04H09 VH1/VL4 (antibody, V domains shown) VH: EVQLVQSGAEVKKPGASVKVSCKTSGYTFISSWMNWVRQAPGAGLDWMGQIYPGDGDTNYNGKFKGRVTLTADTSTSTAYMELSSLRAGDIAVYYCARHYDGSTDYWGQGTLVTVSS VL: EIVMTQSPASLSLSQGEKVTITCRASENIYSNLAWYQQRPGQAPKLLIYAATNLADGVPSRFSGSGSGTDFSLTISSLEPEDVAVYYCQHFWGTPYTFGQGTK", "CMVIC pSmad-3, IC50", 136]
]}

Can you share its CMVIC pSmad-3, IC50? I mean this binder: Can04H09 VH3/VL3 (antibody, V domains shown) VH: EVQLVQSAAEVKKPGASVKVSCKTSGYTFTSSWMNWVQQAPGAGLDWMGQIYPGDGDTNYNGKFKGRVTLTADTSTSTAYMELSSLRAEDTAVYYCARHYDGSTDYWGQGTLVTVSS VL: EIVMTQSPASLSLSQEEKVTITCRASENIYSNLAWYQQKPGQAPKLLIYAATNLADGVPSRFSGSGSGTDFSFTISSLEPEDVAVYYCQHFWGTPYTFGQGTK 72.8
